Recorded AC50 values for a group of compounds are listed next.
- tgt: UniProtKB P08588
- Sequence (P08588 whole entry): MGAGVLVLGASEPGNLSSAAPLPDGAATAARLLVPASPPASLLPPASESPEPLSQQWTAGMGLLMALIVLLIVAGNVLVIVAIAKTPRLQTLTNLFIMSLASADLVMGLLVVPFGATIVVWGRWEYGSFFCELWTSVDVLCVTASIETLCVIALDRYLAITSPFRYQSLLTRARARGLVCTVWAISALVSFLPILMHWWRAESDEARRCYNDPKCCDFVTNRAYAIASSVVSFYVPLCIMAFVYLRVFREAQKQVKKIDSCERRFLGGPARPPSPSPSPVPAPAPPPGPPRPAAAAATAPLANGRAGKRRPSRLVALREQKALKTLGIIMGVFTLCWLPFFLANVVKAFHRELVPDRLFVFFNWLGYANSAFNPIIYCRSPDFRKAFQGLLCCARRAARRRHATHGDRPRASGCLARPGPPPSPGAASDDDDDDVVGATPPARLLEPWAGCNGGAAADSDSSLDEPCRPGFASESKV
- Format: functional

Ask: Reported AC50 for CC1(C)S[C@@H]2[C@H](NC(=O)C(C(=O)O)c3ccccc3)C(=O)N2[C@H]1C(=O)O (some centres undefined) : what is it?
Result: > 30 µM

Ask: Let us now turn to CCCCOc1ccc(C(=O)CCN2CCCCC2)cc1
Result: > 10 µM

Ask: For CCC[C@@H]1C[C@@H](C(=O)N[C@@H]([C@H]2O[C@H](SC)[C@H](O)[C@@H](O)[C@H]2O)[C@@H](C)O)N(C)C1 then?
Result: > 10 µM
